# target.desc: mAChR M4 (Homo sapiens)
# Construct: expressed in transfected cells; host or cells: CHO-K1 cells stably transfected with M4 cDNA and chimeric G-protein Gqi5
# Sequence (P08173 whole entry): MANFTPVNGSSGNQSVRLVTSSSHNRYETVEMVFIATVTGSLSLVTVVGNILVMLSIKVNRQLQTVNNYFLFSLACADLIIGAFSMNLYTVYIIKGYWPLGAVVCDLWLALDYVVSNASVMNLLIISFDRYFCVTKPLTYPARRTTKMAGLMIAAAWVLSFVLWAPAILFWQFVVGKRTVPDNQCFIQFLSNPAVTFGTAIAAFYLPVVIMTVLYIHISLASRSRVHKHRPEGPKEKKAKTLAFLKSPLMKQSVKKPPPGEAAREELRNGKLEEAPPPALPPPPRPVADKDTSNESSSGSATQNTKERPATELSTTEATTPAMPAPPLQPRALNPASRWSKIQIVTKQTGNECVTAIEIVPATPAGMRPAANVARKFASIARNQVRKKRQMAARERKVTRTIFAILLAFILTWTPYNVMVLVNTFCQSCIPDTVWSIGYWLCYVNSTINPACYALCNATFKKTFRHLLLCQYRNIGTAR
# protocol: mAChR M4 cell-based functional assay (calcium mobilization, potentiation of EC20 acetylcholine response)
# protocol.conditions: mAChR M4 cell-based functional assay; >10,000 estimated for low potency compounds without plateau; read-out: EC50
recorded.metric: EC50 (nM)

smiles.string | EC50, nM
Cc1c(CN2CCOCC2)nnc2sc(C(=O)NCc3ccc(S(=O)(=O)C(F)(F)F)cc3)c(N)c12 | 460
Cc1nnc2sc(C(=O)N3CC(NC(=O)c4ccncc4)C3)c(N)c2c1C | 1900

[a] CCS(=O)(=O)c1ccc(CNC(=O)c2sc3nnc(C)c(C)c3c2N)cc1
[b] Cc1ccc(S(=O)(=O)NC2CN(C(=O)c3sc4nnc(C)c(C)c4c3N)C2)cc1
[c] Cc1nnc2sc(C(=O)NC(C)(C)C)c(N)c2c1C
[d] Cc1nnc2sc(C(=O)NCc3ccc(-n4cncn4)cc3)c(N)c2c1C
Order by EC50, ascending. To answer, write out the labels according to the requested order.
a, d, b, c

meta.source: patent US9868746B2
